assay: Solubility of the compound in water after 24 hrs by HPLC analysis; format: physicochemical
Quantity Kind: solubility

[[record]]
compound = "CC(C)(C)c1[nH]cnc1/C=c1\\[nH]c(=O)/c(=C/c2cccc(C(=O)c3cncs3)c2)[nH]c1=O"
result = "< 0.1 µg/mL"

[[record]]
compound = "CC(C)(C)c1[nH]cnc1/C=c1\\[nH]c(=O)/c(=C/c2cccc(C(=O)N3CCOCC3)c2)[nH]c1=O"
result = "1.79 µg/mL"

[[record]]
compound = "CC(C)(C)c1[nH]cnc1/C=c1\\[nH]c(=O)/c(=C/c2cccc(C(=O)c3cccs3)c2)[nH]c1=O"
result = "< 0.1 µg/mL"

[[record]]
compound = "CC(C)(C)c1[nH]cnc1/C=c1\\[nH]c(=O)/c(=C/c2cccc(C(=O)N3CCC3)c2)[nH]c1=O"
result = "4.231 µg/mL"

[[record]]
compound = "CC(C)(C)c1[nH]cnc1/C=c1\\[nH]c(=O)/c(=C/c2cccc(C(=O)N3CCCC3)c2)[nH]c1=O"
result = "0.454 µg/mL"

[[record]]
compound = "CC(C)(C)c1[nH]cnc1/C=c1\\[nH]c(=O)/c(=C/c2ccccc2)[nH]c1=O [PLINABULIN]"
result = "< 0.1 µg/mL"

[[record]]
compound = "CN1CCN(C(=O)c2cccc(/C=c3\\[nH]c(=O)/c(=C/c4ccccn4)[nH]c3=O)c2)CC1"
result = "16.302 µg/mL"

[[record]]
compound = "CC(C)(C)c1[nH]cnc1/C=c1\\[nH]c(=O)/c(=C/c2cccc(C(=O)c3ccccc3)c2)[nH]c1=O"
result = "< 0.1 µg/mL"

[[record]]
compound = "CC(C)(C)c1[nH]cnc1/C=c1\\[nH]c(=O)/c(=C/c2cccc(C(=O)c3ccncc3)c2)[nH]c1=O"
result = "< 0.1 µg/mL"

[[record]]
compound = "O=C(c1cccc(/C=c2\\[nH]c(=O)/c(=C/c3ccccn3)[nH]c2=O)c1)N1CCC1"
result = "0.662 µg/mL"

[[record]]
compound = "CC(C)(C)c1[nH]cnc1/C=c1\\[nH]c(=O)/c(=C/c2cccc(C(=O)c3ccoc3)c2)[nH]c1=O"
result = "< 0.1 µg/mL"

[[record]]
compound = "CC(C)(C)c1[nH]cnc1/C=c1\\[nH]c(=O)/c(=C/c2cccc(C(=O)c3cccnc3)c2)[nH]c1=O"
result = "< 0.1 µg/mL"

[[record]]
compound = "CC(C)(C)c1[nH]cnc1/C=c1\\[nH]c(=O)/c(=C/c2cccc(C(=O)c3ccsc3)c2)[nH]c1=O"
result = "< 0.1 µg/mL"

[[record]]
compound = "CN1CCN(C(=O)c2cccc(/C=c3\\[nH]c(=O)/c(=C/c4nc[nH]c4C(C)(C)C)[nH]c3=O)c2)CC1"
result = "85.568 µg/mL"

[[record]]
compound = "CC(C)(C)c1[nH]cnc1/C=c1\\[nH]c(=O)/c(=C/c2cccc(C(=O)c3ccccn3)c2)[nH]c1=O"
result = "< 0.1 µg/mL"

[[record]]
compound = "O=C(c1cccc(/C=c2\\[nH]c(=O)/c(=C/c3ccccn3)[nH]c2=O)c1)N1CCCCC1"
result = "< 0.1 µg/mL"

[[record]]
compound = "CC(C)(C)c1[nH]cnc1/C=c1\\[nH]c(=O)/c(=C/c2cccc(C(=O)N3CCCCC3)c2)[nH]c1=O"
result = "< 0.1 µg/mL"

[[record]]
compound = "O=C(c1ccccc1)c1cccc(/C=c2\\[nH]c(=O)/c(=C/c3ccccn3)[nH]c2=O)c1"
result = "< 0.1 µg/mL"

[[record]]
compound = "CC(C)(C)c1[nH]cnc1/C=c1\\[nH]c(=O)/c(=C/c2cccc(C(=O)c3ccco3)c2)[nH]c1=O"
result = "< 0.1 µg/mL"

